# Assay procedure: BSK_CASM3C_Proliferation: Cell Proliferation Assessment in the BioMAP Diversity Plus: CASM3C Assay (AID 2283047);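 note: sulforhodamine B total protein stain as relative cell number at 560 nm; sub-confluent cells exposed 48 h before staining; fitted both ways against DMSO so gain or loss of cell number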
# Measurement conditions: primary human coronary artery smooth muscle cells
Calls of active or inactive are those of the source. Rule for the calls: active = hit-call score of the fitted dose curve at least 0.9, where 1 is the maximum; inactive = score below 0.9.
Tick one outcome: YES for active, NO for inactive

Exam item: Dear colleague, could you share the recorded outcome for `CN1CCC[C@H]1c1cccnc1` when you have a moment?
Marked response: NO

Exam item: Dear colleague, could you share the recorded outcome for `CC(C)(C)c1cccc(C(C)(C)C)c1O` when you have a moment?
Marked response: NO

Exam item: Dear colleague, could you share the recorded outcome for `Cc1oc(-c2ccccc2)nc1CCOc1ccc(C[C@H](Nc2ccccc2C(=O)c2ccccc2)C(=O)O)cc1` when you have a moment?
Marked response: YES

Exam item: Dear colleague, could you share the recorded outcome for `O=c1c(-c2ccc(O)cc2)coc2cc(O)ccc12` when you have a moment?
Marked response: NO

Exam item: Dear colleague, could you share the recorded outcome for `CC(=O)CC(C)(C)O` when you have a moment?
Marked response: NO

Exam item: Dear colleague, could you share the recorded outcome for `CN(C)C=O` when you have a moment?
Marked response: NO

Exam item: Dear colleague, could you share the recorded outcome for `OC1CCCCC1` when you have a moment?
Marked response: NO

Exam item: Dear colleague, could you share the recorded outcome for `NC(=O)N(O)[C@@H]1C=C[C@H](Oc2cccc(Oc3ccc(F)cc3)c2)C1` when you have a moment?
Marked response: YES

Exam item: Dear colleague, could you share the recorded outcome for `O=C(OCCOCCOC(=O)c1ccccc1)c1ccccc1` when you have a moment?
Marked response: NO

Exam item: Dear colleague, could you share the recorded outcome for `Nc1cccc2c(N)cccc12` when you have a moment?
Marked response: NO

Exam item: Dear colleague, could you share the recorded outcome for `c1ccc2c(c1)Cc1ccccc1-2` when you have a moment?
Marked response: NO

Exam item: Dear colleague, could you share the recorded outcome for `Oc1cccc(O)c1` when you have a moment?
Marked response: NO

Exam item: Dear colleague, could you share the recorded outcome for `CCCCCCCCCCCCc1ccccc1S(=O)(=O)O` when you have a moment?
Marked response: NO

Exam item: Dear colleague, could you share the recorded outcome for NC(=O)N1C(=O)C(C(=O)c2cc(Cl)cs2)c2cc(F)c(Cl)cc21 (configuration not stated) when you have a moment?
Marked response: YES

Exam item: Dear colleague, could you share the recorded outcome for COCC(C)OCC(C)O (configuration not stated) when you have a moment?
Marked response: NO

Exam item: Dear colleague, could you share the recorded outcome for `CCCCCCCCCCCCCCCS(=O)(=O)Oc1ccccc1` when you have a moment?
Marked response: NO

Exam item: Dear colleague, could you share the recorded outcome for CCCCC(CC)COC(=O)CCCCC(=O)OCc1ccccc1 (configuration not stated) when you have a moment?
Marked response: NO

Exam item: Dear colleague, could you share the recorded outcome for `CC[C@H](C)[C@@H](C(=O)O)n1sc2ccccc2c1=O` when you have a moment?
Marked response: NO

Exam item: Dear colleague, could you share the recorded outcome for `CCCCCCC(=O)O` when you have a moment?
Marked response: NO

Exam item: Dear colleague, could you share the recorded outcome for CC(O)CO (configuration not stated) when you have a moment?
Marked response: NO

Exam item: Dear colleague, could you share the recorded outcome for `c1ccc2c(c1)ccc1ccccc12` when you have a moment?
Marked response: NO

Exam item: Dear colleague, could you share the recorded outcome for `O=[N+]([O-])c1ccc(O)cc1` when you have a moment?
Marked response: NO

###

# Assay procedure: ATG_PPRE_CIS: Attagene CIS-FACTORIAL HepG2 Assay for human Peroxisome Proliferator-activated Response Element (PPRE) (AID 2282958)
# Measurement conditions: HepG2 PPRE cis-element reporter, Attagene transcription factor profiling; actives raise or lower the signal
The source made the active and inactive calls. How the source made its calls: active means hit-call score of the fitted dose curve at least 0.9, where 1 is the maximum; inactive means score below 0.9.
Tick one outcome: Yes for active, No for inactive

Exam item: Dear colleague, could you share the recorded outcome for `COc1ccc([N+](=O)[O-])cc1N` when you have a moment?
Marked response: No

Exam item: Dear colleague, could you share the recorded outcome for `Cc1cc(C)c(O)c(C)c1` when you have a moment?
Marked response: No

Exam item: Dear colleague, could you share the recorded outcome for `CCCCCCCCCCCCN1CCCC1=O` when you have a moment?
Marked response: No

Exam item: Dear colleague, could you share the recorded outcome for `c1ccc2c(c1)ccc1ccccc12` when you have a moment?
Marked response: No

Exam item: Dear colleague, could you share the recorded outcome for `CCCCCCCCCCCCCC[N+](C)(C)C` when you have a moment?
Marked response: No

Exam item: Dear colleague, could you share the recorded outcome for `CC(=O)CC(C)(C)O` when you have a moment?
Marked response: No

Exam item: Dear colleague, could you share the recorded outcome for `CC(=O)NC1(c2cccc(F)c2)CCN(CC[C@@]2(c3ccc(Cl)c(Cl)c3)CN(c3ccccc3)C(=O)CO2)CC1` when you have a moment?
Marked response: Yes

Exam item: Dear colleague, could you share the recorded outcome for COCC(C)OCC(C)O (stereo not drawn) when you have a moment?
Marked response: No

###

# Read-out: Apolipoprotein A-V (APOA5) gene, APOA5 (gene 116519)
# Assay procedure: LTEA_HepaRG_APOA5: Life Technologies and Expression Analysis (LTEA) Assay for Apolipoprotein A-V (APOA5) gene using HepaRG (AID 2283474)
# Measurement conditions: mRNA level, 48 h; actives raise or lower the signal
Active and inactive are the calls of the source. Rule for the calls: active = hit-call score of the fitted dose curve at least 0.9, where 1 is the maximum; inactive = score below 0.9.
Experimental readout: AC50

Solved entries (count: 5):
| Smiles string | AC50 |
| --- | --- |
| C[C@@H]1C[C@H]2[C@@H]3CCC4=CC(=O)C=C[C@]4(C)[C@@]3(F)[C@@H](O)C[C@]2(C)[C@@]1(O)C(=O)COP(=O)(O)O | inactive |
| CCCCCCCCOC(=O)CCCCCCCCC(=O)OCCCCCCCC | inactive |
| CC[C@H](c1ccc(O)cc1)[C@@H](CC)c1ccc(O)cc1 | inactive |
| CC(C)CCCCCCOC(=O)CCCCC(=O)OCCCCCCC(C)C | inactive |
| COC(=O)CCCCC(=O)OC | inactive |

Record summary for `CC(C)(C)c1cccc(C(C)(C)C)c1O` : reported AC50 = inactive

Record summary for `Cc1oc(-c2ccccc2)nc1CCOc1ccc(C[C@H](Nc2ccccc2C(=O)c2ccccc2)C(=O)O)cc1` : reported AC50 = inactive

###

# Read-out: Glutathione S-transferase M3 (GSTM3), GSTM3 (gene 2947)
# Assay procedure: LTEA_HepaRG_GSTM3: Life Technologies and Expression Analysis (LTEA) Assay for Glutathione S-transferase M3 (GSTM3) using HepaRG (AID 2283501)
# Measurement conditions: mRNA level, 48 h; actives raise or lower the signal
Active and inactive are the calls of the source. How the source made its calls: active means hit-call score of the fitted dose curve at least 0.9, where 1 is the maximum; inactive means score below 0.9.
Tick one outcome: active, inactive

Exam item: Dear colleague, could you share the recorded outcome for COCC(C)OCC(C)O (centres undefined) when you have a moment?
Marked response: inactive

Exam item: Dear colleague, could you share the recorded outcome for `CC(C)(C)c1cccc(C(C)(C)C)c1O` when you have a moment?
Marked response: inactive

Exam item: Dear colleague, could you share the recorded outcome for `O=c1c(-c2ccc(O)cc2)coc2cc(O)ccc12` when you have a moment?
Marked response: inactive

Exam item: Dear colleague, could you share the recorded outcome for `Oc1cc2ccccc2c2ccccc12` when you have a moment?
Marked response: inactive

Exam item: Dear colleague, could you share the recorded outcome for `CCCOc1sc(C(=O)N2CCC(c3cc(CN)ccc3F)CC2)c(C)c1Br` when you have a moment?
Marked response: inactive

Exam item: Dear colleague, could you share the recorded outcome for `Cc1cc(C)c(O)c(C)c1` when you have a moment?
Marked response: inactive

Exam item: Dear colleague, could you share the recorded outcome for `CCCCCCC(=O)O` when you have a moment?
Marked response: inactive

Exam item: Dear colleague, could you share the recorded outcome for `CC#C[C@]1(O)CC[C@H]2[C@@H]3CCC4=CC(=O)CCC4=C3[C@@H](c3ccc(N(C)C)cc3)C[C@@]21C` when you have a moment?
Marked response: inactive

Exam item: Dear colleague, could you share the recorded outcome for `C#C[C@]1(O)CC[C@H]2[C@@H]3CCC4=CC(=O)CC[C@@H]4[C@H]3CC[C@@]21C` when you have a moment?
Marked response: inactive

Exam item: Dear colleague, could you share the recorded outcome for `CC(C)CCCCCCOC(=O)CCCCC(=O)OCCCCCCC(C)C` when you have a moment?
Marked response: inactive

Exam item: Dear colleague, could you share the recorded outcome for `Cc1oc(-c2ccccc2)nc1CCOc1ccc(C[C@H](Nc2ccccc2C(=O)c2ccccc2)C(=O)O)cc1` when you have a moment?
Marked response: active

Exam item: Dear colleague, could you share the recorded outcome for `CC(C)(C)CC(C)(C)c1ccc(O)c(-n2nc3ccccc3n2)c1` when you have a moment?
Marked response: inactive

Exam item: Dear colleague, could you share the recorded outcome for `Nc1cccc2c(N)cccc12` when you have a moment?
Marked response: inactive

Exam item: Dear colleague, could you share the recorded outcome for `C[C@@H]1C[C@H]2[C@@H]3CCC4=CC(=O)C=C[C@]4(C)[C@@]3(F)[C@@H](O)C[C@]2(C)[C@@]1(O)C(=O)COP(=O)(O)O` when you have a moment?
Marked response: inactive

###

# Assay procedure: APR_HepG2_CellCycleArrest_24hr: Apredica 24-hour HepG2 Assay for Cell Cycle Arrest (AID 2282905);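 note: cell cycle arrest scored as ratio of 2N to 4N nuclear DNA content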
# Measurement conditions: imaging, actives raise or lower the signal
# Description: APR_HepG2_24hr is a cell-based, multiplexed-readout assay that uses HepG2, a human liver cell line, with measurements taken at 24 hours after chemical dosing in a 384-well plate.APR_HepG2_CellCycleArrest_24hr is one of 10 assay component(s) measured or calculated from the APR_HepG2_24hr assay. […] This assay endpoint, APR_HepG2_CellCycleArrest_24hr, was analyzed with bidirectional fitting relative to DMSO as the negative control and baseline of activity. […]
Activity calls are given as the source filed them. Rule for the calls: active = hit-call score of the fitted dose curve at least 0.9, where 1 is the maximum; inactive = score below 0.9.
Tick one outcome: active, inactive

Exam item: Dear colleague, could you share the recorded outcome for `CC(C)(C)CC(C)(C)c1ccc(O)c(-n2nc3ccccc3n2)c1` when you have a moment?
Marked response: active

Exam item: Dear colleague, could you share the recorded outcome for `CN(C)C=O` when you have a moment?
Marked response: inactive

Exam item: Dear colleague, could you share the recorded outcome for `CCCCCCC(=O)O` when you have a moment?
Marked response: inactive

Exam item: Dear colleague, could you share the recorded outcome for `CC(=O)NC1(c2cccc(F)c2)CCN(CC[C@@]2(c3ccc(Cl)c(Cl)c3)CN(c3ccccc3)C(=O)CO2)CC1` when you have a moment?
Marked response: active

Exam item: Dear colleague, could you share the recorded outcome for `CCCCCCCCCCCCCCCS(=O)(=O)Oc1ccccc1` when you have a moment?
Marked response: inactive

Exam item: Dear colleague, could you share the recorded outcome for `C#C[C@]1(O)CC[C@H]2[C@@H]3CCC4=CC(=O)CC[C@@H]4[C@H]3CC[C@@]21C` when you have a moment?
Marked response: inactive

Exam item: Dear colleague, could you share the recorded outcome for `CCOC(=O)CC(O)(CC(=O)OCC)C(=O)OCC` when you have a moment?
Marked response: inactive

Exam item: Dear colleague, could you share the recorded outcome for `Nc1cccc2c(N)cccc12` when you have a moment?
Marked response: inactive

Exam item: Dear colleague, could you share the recorded outcome for `CC(C)(C)c1cccc(C(C)(C)C)c1O` when you have a moment?
Marked response: inactive

Exam item: Dear colleague, could you share the recorded outcome for NC(=O)N1C(=O)C(C(=O)c2cc(Cl)cs2)c2cc(F)c(Cl)cc21 (centres undefined) when you have a moment?
Marked response: inactive

Exam item: Dear colleague, could you share the recorded outcome for CC(O)CO (centres undefined) when you have a moment?
Marked response: inactive

Exam item: Dear colleague, could you share the recorded outcome for `OCCC(F)(F)C(F)(F)C(F)(F)C(F)(F)C(F)(F)C(F)(F)C(F)(F)C(F)(F)F` when you have a moment?
Marked response: active

Exam item: Dear colleague, could you share the recorded outcome for `CC(=O)CC(C)(C)O` when you have a moment?
Marked response: active

Exam item: Dear colleague, could you share the recorded outcome for `CCCCOCCO` when you have a moment?
Marked response: inactive
